Biological target: Recombinant human IDO (Homo sapiens, UniProt P14902)
Sequence (P14902 whole entry): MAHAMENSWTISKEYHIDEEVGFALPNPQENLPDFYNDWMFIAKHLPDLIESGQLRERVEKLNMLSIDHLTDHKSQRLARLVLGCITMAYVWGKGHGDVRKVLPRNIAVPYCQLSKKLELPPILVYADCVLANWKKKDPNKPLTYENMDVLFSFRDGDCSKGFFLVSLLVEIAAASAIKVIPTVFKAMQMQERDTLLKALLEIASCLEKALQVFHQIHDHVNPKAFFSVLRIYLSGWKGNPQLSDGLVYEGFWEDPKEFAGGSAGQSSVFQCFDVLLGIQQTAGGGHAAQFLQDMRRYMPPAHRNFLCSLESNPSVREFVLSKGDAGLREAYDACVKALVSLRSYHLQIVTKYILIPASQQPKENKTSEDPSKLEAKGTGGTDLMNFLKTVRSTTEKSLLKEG
Experiment: Bridge-IT tryptophan fluorescence assay of human IDO-1 inhibition
Conditions: recombinant human IDO 7.5 nM, L-tryptophan
Listed below: IC50 values for each entry.

// below: answered compounds
COMPOUND	IC50
NC(=O)C1CCC(F)(CCC2c3c(F)cccc3-c3cncn32)CC1 (single isomer, unassigned) [Compound 81d]	< 0.1 µM
OC(CC1c2nc(F)ccc2-c2cncn21)C1CCCCC1 (stereo not shown) [Compound 31a]	0.1 to 1 µM
NC(=O)C1CCC(F)(CCC2c3ccccc3-c3cncn32)CC1 (single isomer, unassigned) [Compound 79d]	< 0.1 µM
OC1CCC(C(F)(F)CC2c3ccccc3-c3cncn32)CC1 (mixture of isomers) [Compound 74b]	0.1 to 1 µM
Fc1cccc2c1-c1cncn1C2CCC1(F)CCCCC1 (single isomer, unassigned) [Compound 36a]	> 1 µM
NC(=O)C1CCC(F)(CCC2c3c(F)cccc3-c3cncn32)CC1 (single isomer, unassigned) [Compound 81b]	> 1 µM

Request: Looking for the measured IC50 of CC1(C)CCC(F)(CCC2c3c(F)cccc3-c3cncn32)CC1 (single isomer, unassigned) [Compound 23a] , can you help?
Response: > 1 µM

----------
Target: Recombinant human IDO (Homo sapiens)
Assay: Bridge-IT tryptophan fluorescence assay of human IDO-1 inhibition
Details: recombinant human IDO 7.5 nM, L-tryptophan
pIC50: −log10 of the molar value.
PROPERTY_MEASURED: pIC50

// below: answered molecules
MOLECULE	pIC50
OC1CCC(F)(CCC2c3c(Cl)cccc3-c3cncn32)CC1 (single isomer, unassigned) [Compound 71a]	6.00 to 7.00
COc1ccc2c(n1)C(CC(O)C1CCCCC1)n1cncc1-2 (single isomer, unassigned) [Compound 39b]	6.00 to 7.00
OC1CCC(C(F)(F)CC2c3c(F)cccc3-c3cncn32)CC1 (mixture of isomers) [Compound 75b]	6.00 to 7.00
OC(CC1c2ncccc2-c2cncn21)C1CCC2(CC1)CC2 (single isomer, unassigned) [Compound 29c]	6.00 to 7.00
FC(CC1c2ncccc2-c2cncn21)C1CCCCC1 (single isomer, unassigned) [Compound 97d]	< 6.00

Request: Looking for the measured pIC50 of FC(F)(CC1c2ccccc2-c2cncn21)C1CCCCC1 (racemic) , can you help?
Response: 6.00 to 7.00

Request: Looking for the measured pIC50 of NC(=O)C1CCC(C(O)CC2c3ncccc3-c3cncn32)CC1 (single isomer, unassigned) [Compound 63b] , can you help?
Response: < 6.00

Request: Looking for the measured pIC50 of OC(CC1c2nc(C(F)(F)F)ccc2-c2cncn21)C1CCC(F)(F)CC1 (single isomer, unassigned) [Compound 77c] , can you help?
Response: < 6.00

Request: Looking for the measured pIC50 of NC(=O)C1CCC(F)(CCC2c3c(F)cccc3-c3cncn32)CC1 (single isomer, unassigned) [Compound 81c] , can you help?
Response: > 7.00

Request: Looking for the measured pIC50 of OC1CCC(F)(CCC2c3ncccc3-c3cncn32)CC1 (mixture of isomers) [Compound 7a] , can you help?
Response: < 6.00

----------
Listed below: IC50 values for each entry.
Target: Recombinant human IDO (Homo sapiens)
Test: Bridge-IT tryptophan fluorescence assay of human IDO-1 inhibition
Conditions: recombinant human IDO 7.5 nM, L-tryptophan
Description: Measurement of human IDO-1 inhibition is performed in 384 well format using the Bridge-IT® tryptophan Fluorescence Assay (Mediomics, LLC, St. Louis, Mo., U.S.A.). The reaction is initiated by the addition of L-Tryptophan (Sigma) at a final concentration of 100 μM in assay buffer. […] Measurement of human IDO-1 inhibition was performed in 384-well format using the BRIDGE-IT® tryptophan Fluorescence Assay (Mediomics, LLC, St. Louis, Mo., U.S.A.). […]

// below: answered compounds
COMPOUND	TEST_TARGET	IC50
COc1ccc2c(n1)C(CC(N)C1CCC(F)(F)CC1)n1cncc1-2 (single isomer, unassigned) [Compound 120c]	Recombinant human IDO (Homo sapiens)	100 to 1000 nM
COc1ccc2c(n1)C(CCC1(F)CCC3(CC1)CC3)n1cncc1-2 (single isomer, unassigned) [Compound 54a]	Recombinant human IDO (Homo sapiens)	< 100 nM
CC1(C)CCC(F)(CCC2c3ncncc3-c3cncn32)CC1 (single isomer, unassigned) [Compound 66b]	Recombinant human IDO (Homo sapiens)	> 1000 nM
OC1(C2CCC(F)(CCC3c4ccccc4-c4cncn43)CC2)CC1 (single isomer, unassigned) [Compound 60d]	Recombinant human IDO (Homo sapiens)	< 100 nM

# input for lookup
Request: Looking for the measured IC50 of OC(CC1c2nc(Cl)ccc2-c2cncn21)C1CCCCC1 (single isomer, unassigned) [Compound 55a] , can you help?
Response: 100 to 1000 nM

----------
Molecular target: Recombinant human IDO (Homo sapiens, UniProt P14902)
Test: Bridge-IT tryptophan fluorescence assay of human IDO-1 inhibition
Conditions: recombinant human IDO 7.5 nM, L-tryptophan
pIC50: −log10 of the molar value.
Listed below: pIC50 values for each entry.

// below: answered molecules
MOLECULE	pIC50
O=C(C1CCC(F)(CCC2c3c(Cl)cccc3-c3cncn32)CC1)N1CCCCC1 (single isomer, unassigned) [Compound 115d]	< 6.00
OC(CC1c2ncccc2-c2cncn21)C1CCC2(CC1)CC2 (single isomer, unassigned) [Compound 29d]	< 6.00

# input for lookup
Request: Looking for the measured pIC50 of OC1CCC(C(O)CC2c3ncccc3-c3cncn32)CC1 (stereo not drawn) , can you help?
Response: < 6.00

----------
Biological target: Recombinant human IDO (Homo sapiens)
Test: Bridge-IT tryptophan fluorescence assay of human IDO-1 inhibition
Details: recombinant human IDO 7.5 nM, L-tryptophan
pIC50: −log10 of the molar value.
PROPERTY_MEASURED: pIC50

// below: answered compounds
COMPOUND	EXPERIMENTAL_VALUE
OC(CC1c2nc(OC3CC3)ccc2-c2cncn21)C1CCCCC1 (single isomer, unassigned) [Compound 68a]	6.00 to 7.00
FC1(CCC2c3ncccc3-c3cncn32)CCCCC1 (single isomer, unassigned) [Compound 18a]	6.00 to 7.00
CC(C)(C)C(=O)N1CCC(C(O)CC2c3ncccc3-c3cncn32)CC1 (single isomer, unassigned) [Compound 88a]	< 6.00

Request: Looking for the measured pIC50 of OC1(C2CCC(F)(CCC3c4c(F)cccc4-c4cncn43)CC2)CC1 (stereo not drawn) [Compound 85b] , can you help?
Response: 6.00 to 7.00

Request: Looking for the measured pIC50 of FC(CC1c2ncccc2-c2cncn21)C1CCCCC1 (single isomer, unassigned) [Compound 97c] , can you help?
Response: 6.00 to 7.00

----------
Molecular target: Recombinant human IDO (Homo sapiens, UniProt P14902)
Assay: Bridge-IT tryptophan fluorescence assay of human IDO-1 inhibition
Assay type: biochemical
Conditions: recombinant human IDO 7.5 nM, L-tryptophan
Listed below: IC50 values for each entry.

// below: answered compounds
COMPOUND	IC50
Fc1cccc2c1-c1cncn1C2CCC1(F)CCCCC1 (single isomer, unassigned) [Compound 36b]	> 1000 nM
FC1(CCC2c3ccccc3-c3cncn32)CCOCC1 (single isomer, unassigned) [Compound 94b]	< 100 nM

Request: Looking for the measured IC50 of OC(CC1c2nc(Cl)ccc2-c2cncn21)C1CCCCC1 (single isomer, unassigned) [Compound 55c] , can you help?
Response: > 1000 nM

----------
Biological target: Recombinant human IDO (Homo sapiens)
Assay: Bridge-IT tryptophan fluorescence assay of human IDO-1 inhibition
Settings: recombinant human IDO 7.5 nM, L-tryptophan
pIC50: −log10 of the molar value.
PROPERTY_MEASURED: pIC50

MOLECULE	pIC50
COc1ccc2c(n1)C(CC(N)C1CCC(F)(F)CC1)n1cncc1-2 (single isomer, unassigned) [Compound 120d]	< 6.00
COc1ccc2c(n1)C(CCC1(F)CCCCC1)n1cncc1-2 (single isomer, unassigned) [Compound 32b]	6.00 to 7.00
CC1(C)CCC(C(O)CC2c3nc(F)ccc3-c3cncn32)CC1 (single isomer, unassigned) [Compound 25c]	< 6.00

Request: Looking for the measured pIC50 of COc1ccc2c(n1)C(CC(O)C1CCC3(CC1)CC3)n1cncc1-2 (single isomer, unassigned) [Compound 53b] , can you help?
Response: > 7.00

Request: Looking for the measured pIC50 of COc1ccc2c(n1)C(CCC1(F)CCC(F)(F)CC1)n1cncc1-2 (single isomer, unassigned) [Compound 34b] , can you help?
Response: < 6.00

----------
Listed below: pIC50 values for each entry.
Biological target: Recombinant human IDO (Homo sapiens)
Test: Bridge-IT tryptophan fluorescence assay of human IDO-1 inhibition
Settings: recombinant human IDO 7.5 nM, L-tryptophan
Method: Measurement of human IDO-1 inhibition is performed in 384 well format using the Bridge-IT® tryptophan Fluorescence Assay (Mediomics, LLC, St. Louis, Mo., U.S.A.). The reaction is initiated by the addition of L-Tryptophan (Sigma) at a final concentration of 100 μM in assay buffer. […] Measurement of human IDO-1 inhibition was performed in 384-well format using the BRIDGE-IT® tryptophan Fluorescence Assay (Mediomics, LLC, St. Louis, Mo., U.S.A.). […]
pIC50: −log10 of the molar value.

// below: answered compounds
COMPOUND	TEST_TARGET	pIC50
CC(C)[C@H](N)C(=O)N1CCC(F)(CCC2c3ccccc3-c3cncn32)CC1 (single isomer, unassigned) [Compound 89b]	Recombinant human IDO (Homo sapiens)	< 6.00
CC(C)(O)C1CCC(F)(CCC2c3c(F)cccc3-c3cncn32)CC1 (mixture of isomers) [Compound 86b]	Recombinant human IDO (Homo sapiens)	> 7.00
OC1CCC(F)(CCC2c3cc(F)ncc3-c3cncn32)CC1 (single isomer, unassigned) [Compound 58d]	Recombinant human IDO (Homo sapiens)	< 6.00

# input for lookup
Request: Looking for the measured pIC50 of OC1CCC(F)(CCC2c3ncccc3-c3cncn32)CC1 (single isomer, unassigned) [Compound 8a] , can you help?
Response: 6.00 to 7.00

Where do these numbers come from? They come from patent US9771370B2.
